- System: KM mice
- test: Test for drug-induced disappearance of righting reflex in mice
- Type: in vivo
- test.context: 30 mg/kg, single rapid bolus via tail vein
For each entry below, report its Latency value.
One number for each entry, in min.

Worked set:
query.smiles | target.or.test.system | Latency / min
COC(=O)CC[C@@H]1N=C(c2ccccc2)c2cc([N+](=O)[O-])ccc2-n2c(SCCN3CCOCC3)nnc21 | KM mice | 0.45
CCCSc1nnc2n1-c1ccc([N+](=O)[O-])cc1C(c1ccccc1F)=N[C@H]2CCC(=O)OC | KM mice | 0.79
CCOC(=O)CC[C@@H]1N=C(c2ccccc2Cl)c2cc(Br)ccc2-n2c(SC)nnc21 | KM mice | 0.38

Now, please, on to the next molecule.
Q: Fill blank: measured Latency of the molecule COC(=O)CC[C@@H]1N=C(c2ccccc2F)c2cc([N+](=O)[O-])ccc2-n2c(SCN3CCN(c4ccccc4)CC3)nnc21 is ____.
Ans: 0.47

---

- Test system: GABA-activated Cl− current (GABAA receptor) in HEK 293T cells
- test: Effect of drugs on GABA-activated current in cells by cell patch clamp
- Assay type: cell-based
- test.context: −60 mV, corresponding concentration 20 μM
measured.parameter: Enhancement percentage Emax for 2 μM GABA current (within 3-30 μM)

Worked set:
query.smiles | experimental.value
CCSc1nnc2n1-c1ccc([N+](=O)[O-])cc1C(c1ccccc1F)=N[C@H]2CCC(=O)OC | 246% (20 μM)
COC(=O)CC[C@@H]1N=C(c2ccccc2Cl)c2cc(Cl)ccc2-n2c(SCCN)nnc21 | 318% (20 μM)
COC(=O)CC[C@@H]1N=C(c2ccccc2Cl)c2cc(Br)ccc2-n2c(SCCO)nnc21 | 279% (20 μM)
COC(=O)CC[C@@H]1N=C(c2ccccc2Cl)c2cc(Br)ccc2-n2c(SCCN3CCOCC3)nnc21 | 311% (20 μM)
COC(=O)CC[C@@H]1N=C(c2ccccc2Cl)c2cc([N+](=O)[O-])ccc2-n2c(SCCO)nnc21 | 302% (20 μM)

Please give Enhancement percentage Emax for 2 μM GABA current (within 3-30 μM), item by item, for the list that follows.
1. COC(=O)CC[C@H]1N=C(c2ccccc2Cl)c2cc(Cl)ccc2-n2c(SCCN3CCC(O)CC3)nnc21
2. COC(=O)CC[C@@H]1N=C(c2ccccc2Cl)c2cc(Br)ccc2-n2c(SCCCN3CCN(CCO)CC3)nnc21

Ans:
263% (20 μM)
238% (20 μM)

---

- Test system: KM mice
- test: Test for drug-induced disappearance of righting reflex in mice
- Assay type: in vivo
- test.context: 100 mg/kg, single rapid bolus via tail vein
measured.parameter: Latency (min)
Give bare numbers, in min.

Please give Latency, item by item, for the list that follows.
1. COC(=O)CC[C@@H]1N=C(c2ccccc2Cl)c2cc(Cl)ccc2-n2c(SC)nnc21
2. COC(=O)CC[C@@H]1N=C(c2ccccc2Cl)c2cc(Cl)ccc2-n2c(SCCN3CCOCC3)nnc21
3. COC(=O)CC[C@@H]1N=C(c2ccccc2F)c2cc(Cl)ccc2-n2c(SCCN3CCOCC3)nnc21
4. COC(=O)CC[C@@H]1N=C(c2ccccc2Cl)c2cc(Br)ccc2-n2c(SCCO)nnc21

Ans:
[0.16, 0.22, 0.16, 0.22]

---

For each entry below, report its Latency value.
- Tested on: KM mice
- test: Test for drug-induced disappearance of righting reflex in mice
- Assay type: in vivo
- test.context: 30 mg/kg, single rapid bolus via tail vein
Numbers only, in min.

Worked set:
compound | target.or.test.system | measured.parameter | unit.annotation | experimental.value
CCN(CC)CCSc1nnc2n1-c1ccc(Cl)cc1C(c1ccccc1F)=N[C@H]2CCC(=O)OC [Compound 54] | KM mice | Latency | min | 0.24
CCCSc1nnc2n1-c1ccc(Br)cc1C(c1ccccc1F)=N[C@H]2CCC(=O)OC [Compound 15] | KM mice | Latency | min | 1.03
COC(=O)CC[C@@H]1N=C(c2ccccc2Cl)c2cc(Br)ccc2-n2c(SCCN3CCOCC3)nnc21 [Compound 82] | KM mice | Latency | min | 0.31

Now, please, on to the next compound.
Q: Fill blank: measured Latency of the compound COC(=O)CC[C@@H]1N=C(c2ccccc2F)c2cc(Cl)ccc2-n2c1n[nH]c2=S [Tautomer of compound 1] is ____.
Ans: 0.21

---

- System: KM mice
- test: Test for drug-induced disappearance of righting reflex in mice
- Format: in vivo
- test.context: 30 mg/kg, single rapid bolus via tail vein
measured.parameter: Latency
# number then unit; no other words

query.smiles | Latency
CCOC(=O)CC[C@@H]1N=C(c2ccccc2Cl)c2cc(Cl)ccc2-n2c(SC)nnc21 | 0.65 min
COC(=O)CC[C@@H]1N=C(c2ccccc2)c2ccccc2-n2c(S)nnc21 | 1.11 min
COC(=O)CC[C@@H]1N=C(c2ccccc2F)c2cc(Cl)ccc2-n2c(SCCO)nnc21 | 1.09 min

Now, please, on to the next molecule.
Q: Fill blank: measured Latency of the molecule COC(=O)CC[C@@H]1N=C(c2ccccc2)c2cc([N+](=O)[O-])ccc2-n2c(SC)nnc21 is ____.
Ans: 0.77 min

---

- Test system: KM mice
- test: Test for drug-induced disappearance of righting reflex in mice
- Format: in vivo
- test.context: 30 mg/kg, single rapid bolus via tail vein
measured.parameter: Latency (min)
Numbers only, in min.

Please give Latency, item by item, for the list that follows.
1. COC(=O)CC[C@@H]1N=C(c2ccccc2Cl)c2cc([N+](=O)[O-])ccc2-n2c(SCCN3CCOCC3)nnc21 [Compound 83]
2. COC(=O)CC[C@@H]1N=C(c2ccccn2)c2cc(Br)ccc2-n2c(SCCCN(C)C)nnc21 [Compound 118]
3. COC(=O)CC[C@@H]1N=C(c2ccccc2Cl)c2cc(Cl)ccc2-n2c(SCCN3CCCCC3)nnc21 [Compound 122]
4. COC(=O)CC[C@@H]1N=C(c2ccc(F)cc2)c2ccccc2-n2c(S)nnc21 [Compound 6]

Ans:
0.28
0.32
0.30
0.59

---

- System: KM mice
- test: Test for drug-induced disappearance of righting reflex in mice
- Assay type: in vivo
- test.context: 30 mg/kg, single rapid bolus via tail vein
For each entry below, report its Latency value.
One number for each entry, in min.

Worked set:
query.smiles | Latency / min
COC(=O)CC[C@@H]1N=C(c2ccccc2Cl)c2cc(Br)ccc2-n2c(SCC3CC3)nnc21 | 0.76
COC(=O)CC[C@@H]1N=C(c2ccccn2)c2cc(Br)ccc2-n2c1n[nH]c2=S | 0.65
COC(=O)CC[C@@H]1N=C(c2ccccc2Cl)c2cc(Cl)ccc2-n2c(SCCC(=O)N(C)C)nnc21 | 0.64
COC(=O)CC[C@@H]1N=C(c2ccccc2F)c2cc(Br)ccc2-n2c(S)nnc21 | 0.88
COC(=O)CC[C@@H]1N=C(c2ccccc2)c2cc(Br)ccc2-n2c(SC)nnc21 | 0.74
CCN(CC)CCSc1nnc2n1-c1ccc(Cl)cc1C(c1ccccc1Cl)=N[C@H]2CCC(=O)OC | 0.31

Now, please, on to the next compound.
Q: Fill blank: measured Latency of the compound COC(=O)CC[C@@H]1N=C(c2ccccc2F)c2cc([N+](=O)[O-])ccc2-n2c(SC)nnc21 is ____.
Ans: 0.76

---

- Tested on: KM mice
- test: Test for drug-induced disappearance of righting reflex in mice
- Format: in vivo
- test.context: 30 mg/kg, single rapid bolus via tail vein
measured.parameter: Latency (min)
Give bare numbers, in min.

Please give Latency, item by item, for the list that follows.
1. COC(=O)CC[C@@H]1N=C(c2ccccc2F)c2cc(Br)ccc2-n2c1n[nH]c2=S
2. COC(=O)CC[C@@H]1N=C(c2ccccc2Cl)c2cc(Cl)ccc2-n2c(SCC3=NCCN3)nnc21

Ans:
0.38
0.45

Please give Latency, item by item, for the list that follows.
1. COC(=O)CC[C@@H]1N=C(c2ccccc2F)c2cc(Cl)ccc2-n2c(SC3CCN(C)CC3)nnc21
2. COC(=O)CC[C@@H]1N=C(c2ccccc2Cl)c2cc(Cl)ccc2-n2c(SCCN3CCCC3)nnc21
3. COC(=O)CC[C@@H]1N=C(c2ccccn2)c2cc(Br)ccc2-n2c(SC)nnc21
4. COC(=O)CC[C@@H]1N=C(c2ccc(F)cc2)c2ccccc2-n2c1n[nH]c2=S

Ans:
[1.23, 0.46, 0.41, 0.73]

Q: Give Latency (KM mice) of the following molecule: COC(=O)CC[C@@H]1N=C(c2ccccc2F)c2cc(Br)ccc2-n2c(SC(=O)N3CCN(C)CC3)nnc21
Ans: 0.56

---

- Test system: KM mice
- test: Test for drug-induced disappearance of righting reflex in mice
- Type: in vivo
- test.context: 60 mg/kg, single rapid bolus via tail vein
Threshold check on Latency: strictly below 0.3 min is rule met; on or above 0.3 min is rule not met.

query.smiles | label.value
COC(=O)CC[C@@H]1N=C(c2ccccc2Cl)c2cc(Cl)ccc2-n2c(SCCN3CCOCC3)nnc21 | rule met
COC(=O)CC[C@@H]1N=C(c2ccccc2Cl)c2cc(Br)ccc2-n2c(SC)nnc21 | rule met
COC(=O)CC[C@@H]1N=C(c2ccccc2)c2cc(Cl)ccc2-n2c(SCCCN(C)C)nnc21 | rule not met
COC(=O)CC[C@@H]1N=C(c2ccccc2Cl)c2cc(Cl)ccc2-n2c(SCCN)nnc21 | rule met
COC(=O)CC[C@@H]1N=C(c2ccccc2Cl)c2cc([N+](=O)[O-])ccc2-n2c(SC)nnc21 | rule not met
COC(=O)CC[C@@H]1N=C(c2ccccc2Cl)c2cc(Br)ccc2-n2c(SCCCN3CCN(CCO)CC3)nnc21 | rule not met

// next entry
Q: Please determine if COC(=O)CC[C@@H]1N=C(c2ccccc2)c2cc(Br)ccc2-n2c(SCCN3CCOCC3)nnc21 is below 0.3 min in terms of Latency.
Ans: rule met
